Molecular target: Ustilago maydis acetyl CoA carboxylase (ACCase) (Ustilago maydis)
Sequence (A0A0D1DYD5 1-2185): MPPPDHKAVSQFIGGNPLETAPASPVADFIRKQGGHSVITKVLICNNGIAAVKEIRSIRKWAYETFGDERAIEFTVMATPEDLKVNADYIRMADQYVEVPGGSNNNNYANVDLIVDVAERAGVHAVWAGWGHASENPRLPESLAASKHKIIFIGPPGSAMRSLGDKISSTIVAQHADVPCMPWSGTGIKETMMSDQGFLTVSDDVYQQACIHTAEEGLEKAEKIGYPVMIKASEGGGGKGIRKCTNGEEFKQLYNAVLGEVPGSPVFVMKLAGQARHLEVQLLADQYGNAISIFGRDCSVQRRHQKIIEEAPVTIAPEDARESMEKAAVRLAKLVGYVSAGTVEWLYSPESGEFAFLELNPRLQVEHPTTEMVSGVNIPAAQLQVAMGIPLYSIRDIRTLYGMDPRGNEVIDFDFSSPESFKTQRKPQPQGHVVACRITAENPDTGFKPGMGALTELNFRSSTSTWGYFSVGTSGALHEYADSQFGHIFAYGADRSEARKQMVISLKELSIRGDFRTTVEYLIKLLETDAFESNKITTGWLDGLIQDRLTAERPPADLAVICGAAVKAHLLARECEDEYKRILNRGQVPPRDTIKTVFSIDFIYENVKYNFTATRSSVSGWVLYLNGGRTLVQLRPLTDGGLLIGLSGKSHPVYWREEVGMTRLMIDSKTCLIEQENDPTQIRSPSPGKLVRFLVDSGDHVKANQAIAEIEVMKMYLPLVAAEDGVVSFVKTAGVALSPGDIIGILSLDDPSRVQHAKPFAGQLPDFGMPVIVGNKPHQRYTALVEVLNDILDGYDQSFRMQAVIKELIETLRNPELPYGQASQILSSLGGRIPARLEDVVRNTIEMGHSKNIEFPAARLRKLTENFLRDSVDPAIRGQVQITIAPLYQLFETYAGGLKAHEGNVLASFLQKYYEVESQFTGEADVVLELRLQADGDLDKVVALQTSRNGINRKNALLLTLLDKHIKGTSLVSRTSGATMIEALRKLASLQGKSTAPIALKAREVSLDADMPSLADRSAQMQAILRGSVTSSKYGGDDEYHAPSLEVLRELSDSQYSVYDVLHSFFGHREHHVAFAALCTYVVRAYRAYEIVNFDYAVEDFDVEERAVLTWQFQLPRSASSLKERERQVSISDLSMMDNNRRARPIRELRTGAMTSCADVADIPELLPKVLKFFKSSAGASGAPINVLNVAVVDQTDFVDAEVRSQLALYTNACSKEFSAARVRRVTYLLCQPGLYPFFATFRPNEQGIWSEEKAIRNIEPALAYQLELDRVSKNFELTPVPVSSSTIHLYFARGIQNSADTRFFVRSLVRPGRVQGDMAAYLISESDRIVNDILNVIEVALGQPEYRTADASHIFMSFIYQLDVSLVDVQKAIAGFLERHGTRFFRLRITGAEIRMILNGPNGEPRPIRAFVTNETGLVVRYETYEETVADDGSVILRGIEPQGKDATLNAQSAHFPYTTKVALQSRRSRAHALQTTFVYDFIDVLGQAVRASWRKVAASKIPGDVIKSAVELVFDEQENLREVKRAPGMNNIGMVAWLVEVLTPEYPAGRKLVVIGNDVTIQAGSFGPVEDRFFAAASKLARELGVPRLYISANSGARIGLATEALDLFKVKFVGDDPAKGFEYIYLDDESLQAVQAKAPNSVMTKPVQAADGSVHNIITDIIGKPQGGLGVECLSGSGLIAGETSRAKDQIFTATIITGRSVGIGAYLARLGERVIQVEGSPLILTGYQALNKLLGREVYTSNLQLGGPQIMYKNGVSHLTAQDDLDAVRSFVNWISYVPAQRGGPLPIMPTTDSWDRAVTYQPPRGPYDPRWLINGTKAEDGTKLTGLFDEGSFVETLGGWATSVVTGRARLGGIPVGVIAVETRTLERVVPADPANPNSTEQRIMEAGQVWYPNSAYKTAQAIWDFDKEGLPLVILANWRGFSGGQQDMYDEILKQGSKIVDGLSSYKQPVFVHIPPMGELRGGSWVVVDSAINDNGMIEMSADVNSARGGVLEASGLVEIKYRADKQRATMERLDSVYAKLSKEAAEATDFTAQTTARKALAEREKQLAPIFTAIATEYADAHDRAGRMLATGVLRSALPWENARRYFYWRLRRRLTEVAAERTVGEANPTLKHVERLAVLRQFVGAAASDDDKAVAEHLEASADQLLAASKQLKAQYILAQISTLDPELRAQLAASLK
pIC50: −log10 of the molar value.
Values of pIC50 greater than or equal to 5 map to true; values below map to false.

Example entries begin here.
[
  {
    "MOLECULE": "O=C(O)Cc1ccc(-c2cc(-c3ccccc3)c3ccccc3n2)s1",
    "TARGET UNDER TEST": "Ustilago maydis acetyl CoA carboxylase (ACCase) (Ustilago maydis)",
    "CLASS NAME": "true"
  },
  {
    "MOLECULE": "COc1ccc(-c2cc(-c3ccccc3)c3ccccc3n2)cc1",
    "TARGET UNDER TEST": "Ustilago maydis acetyl CoA carboxylase (ACCase) (Ustilago maydis)",
    "CLASS NAME": "false"
  },
  {
    "MOLECULE": "NC(=O)Cc1ccc(-c2nc3ccccc3c(-c3ccccc3)c2Cl)s1",
    "TARGET UNDER TEST": "Ustilago maydis acetyl CoA carboxylase (ACCase) (Ustilago maydis)",
    "CLASS NAME": "true"
  }
]

Below: the item to evaluate.
// query Could you tell me if the measured pIC50 of `O=C(O)COc1ccc(-c2cc(-c3ccccc3)c3ccccc3n2)cc1` reaches 5 or more?
// result true
